Listed below: pIC50 values for each entry.
Assay System: PIM-1 (Homo sapiens, UniProt P11309)
Construct: histidine tag (C); made in house
Sequence (P11309 whole entry): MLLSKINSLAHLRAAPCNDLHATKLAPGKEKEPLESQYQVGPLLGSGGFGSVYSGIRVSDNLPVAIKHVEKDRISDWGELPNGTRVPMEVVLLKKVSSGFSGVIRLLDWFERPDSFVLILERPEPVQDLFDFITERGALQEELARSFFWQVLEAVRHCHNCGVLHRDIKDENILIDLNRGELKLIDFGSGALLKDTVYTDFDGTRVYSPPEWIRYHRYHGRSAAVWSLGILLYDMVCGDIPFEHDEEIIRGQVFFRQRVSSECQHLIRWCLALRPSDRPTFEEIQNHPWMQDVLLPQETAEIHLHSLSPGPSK
Procedure Details: PIM-1 biochemical assay (ADP Hunter)
Stated Conditions: semi-quantitative class; read-out: PIM1 IC50
pIC50: −log10 of the molar value.
Observed Property: pIC50

- Compound: "NC(=O)CCNc1ccc2nnn(-c3cccc(OC(F)(F)F)c3)c2n1"
  Assay System: "PIM-1 (Homo sapiens, UniProt P11309)"
  Value Reported: "6.00 to 7.00"
- Compound: "FC(F)(F)Oc1cccc(-n2nnc3ccc(N4CCCC5(CCCN5)CC4)nc32)c1 (stereo not drawn)"
  Assay System: "PIM-1 (Homo sapiens, UniProt P11309)"
  Value Reported: "> 7.00"
- Compound: "FC(F)(F)Oc1cccc(-n2nnc3ccc(N4CCC5(CCNC5)C4)nc32)c1 (stereo not drawn)"
  Assay System: "PIM-1 (Homo sapiens, UniProt P11309)"
  Value Reported: "6.00 to 7.00"
- Compound: "FC(F)(F)Oc1cccc(-n2nnc3ccc(NCC4CCN(Cc5ccncc5)CC4)nc32)c1"
  Assay System: "PIM-1 (Homo sapiens, UniProt P11309)"
  Value Reported: "> 7.00"
- Compound: "O=C1CN(CCNc2ccc3nnn(-c4cccc(OC(F)(F)F)c4)c3n2)CCN1"
  Assay System: "PIM-1 (Homo sapiens, UniProt P11309)"
  Value Reported: "6.00 to 7.00"
- Compound: "FC(F)(F)Oc1cccc(-n2nnc3ccc(NCCN4CCNCC4)nc32)c1"
  Assay System: "PIM-1 (Homo sapiens, UniProt P11309)"
  Value Reported: "6.00 to 7.00"
- Compound: "CCOC(=O)c1cc2nnn(-c3ccc(O)cc3)c2nc1NCc1ccc(F)cc1"
  Assay System: "PIM-1 (Homo sapiens, UniProt P11309)"
  Value Reported: "< 6.00"
- Compound: "O[C@H]1CC[C@@H](CNc2ccc3nnn(-c4cccc(OC(F)(F)F)c4)c3n2)CC1"
  Assay System: "PIM-1 (Homo sapiens, UniProt P11309)"
  Value Reported: "> 7.00"
- Compound: "CS(=O)(=O)N1CCN(c2ccc3nnn(-c4cccc(OC(F)(F)F)c4)c3n2)CC1"
  Assay System: "PIM-1 (Homo sapiens, UniProt P11309)"
  Value Reported: "6.00 to 7.00"

----------
Assay System: PIM-1 (Homo sapiens)
Construct: histidine tag (C); made in house
Procedure Details: PIM-1 biochemical assay (ADP Hunter);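 note: recombinant human PIM-1 carrying a C-terminal His tag, kinase activity quantified via ADP formed as the direct enzymatic product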
Stated Conditions: semi-quantitative class; read-out: PIM1 IC50

- Compound: "CS(=O)(=O)NC1CCN(c2ccc3nnn(-c4cccc(OC(F)(F)F)c4)c3n2)CC1 [2-80]"
  IC50: "100 to 1000 nM"
- Compound: "FC(F)(F)Oc1cccc(-n2nnc3ccc(NCC4CC4)nc32)c1 [2-20]"
  IC50: "100 to 1000 nM"
- Compound: "COc1cc(NCC2CC3(CCNCC3)C2)nc2c1nnn2-c1cccc(N(C)C)c1 [2-94]"
  IC50: "< 100 nM"
- Compound: "CS(=O)(=O)N1CCC(Nc2ccc3nnn(-c4cccc(OC(F)(F)F)c4)c3n2)CC1 [2-56]"
  IC50: "< 100 nM"
- Compound: "NC(=O)CNc1ccc2nnn(-c3cccc(OC(F)(F)F)c3)c2n1 [2-40]"
  IC50: "> 1000 nM"
- Compound: "O=C1NCCN1CCNc1ccc2nnn(-c3cccc(OC(F)(F)F)c3)c2n1 [2-48]"
  IC50: "100 to 1000 nM"
- Compound: "O=C1NCCC12CCN(c1ccc3nnn(-c4cccc(OC(F)(F)F)c4)c3n1)CC2 [2-51]"
  IC50: "> 1000 nM"
- Compound: "COc1cc(NC2CCOCC2)nc2c1nnn2-c1cccc(N(C)C)c1 [2-93]"
  IC50: "100 to 1000 nM"
- Compound: "FC(F)(F)Oc1cccc(-n2nnc3ccc(N4CCCC5(CCNCC5)C4)nc32)c1 [2-59]"
  IC50: "< 100 nM"
- Compound: "CCOC(=O)c1cc2nnn(-c3ccc(O)cc3)c2nc1N1CCCCCC1 [2-16]"
  IC50: "> 1000 nM"
- Compound: "OC1CCN(c2ccc3nnn(-c4cccc(OC(F)(F)F)c4)c3n2)CC1 [2-70]"
  IC50: "100 to 1000 nM"
- Compound: "O=CNCCN1CCN(c2ccc3nnn(-c4cccc(OC(F)(F)F)c4)c3n2)CC1 [2-29]"
  IC50: "100 to 1000 nM"
- Compound: "CCOC(=O)c1cc2nnn(-c3ccc(OC)cc3)c2nc1NCC1CCN(C)CC1 [2-14]"
  IC50: "> 1000 nM"
- Compound: "OCCNc1ccc2nnn(-c3cccc(OC(F)(F)F)c3)c2n1 [2-37]"
  IC50: "100 to 1000 nM"
- Compound: "FC(F)(F)Oc1cccc(-n2nnc3ccc(N4CCC5(CC4)CNC5)nc32)c1 [2-43]"
  IC50: "100 to 1000 nM"
- Compound: "FC(F)(F)Oc1cccc(-n2nnc3ccc(N4CCC5(CC4)CNCCO5)nc32)c1 [2-61]"
  IC50: "< 100 nM"
- Compound: "FC(F)(F)c1cccc(-n2nnc3cc(Cl)c(NCC4CCNCC4)nc32)c1 [2-83]"
  IC50: "< 100 nM"
- Compound: "CN1CCC(CNc2nc3c(cc2Cl)nnn3-c2cccc(OC(F)(F)F)c2)CC1 [2-55]"
  IC50: "< 100 nM"
- Compound: "FC(F)(F)c1cccc(-n2nnc3ccc(N4CCCC5(CCCN5)CC4)nc32)c1 (stereo not shown) [2-81]"
  IC50: "< 100 nM"

----------
Listed below: % inhibiton at 1 uM CDK8 CYCC values for each entry.
Tested on: panel of 24 kinases
Procedure Details: Kinase selectivity testing (percentage inhibition of 24 kinases at 1 μM)
Type: biochemical
Stated Conditions: proquinase, CDK8 CYCC, 1 uM
Observed Property: % inhibiton at 1 uM CDK8 CYCC (%)

- Compound: "COc1cc(NCC2CCNCC2)nc2c1nnn2-c1cccc(N(C)C)c1"
  Assay System: "panel of 24 kinases"
  Value Reported: 0
- Compound: "FC(F)(F)Oc1cccc(-n2nnc3ccc(N4CCCC5(CCCN5)CC4)nc32)c1 (stereo not drawn)"
  Assay System: "panel of 24 kinases"
  Value Reported: 2
- Compound: "COc1cc(NCC2CCNCC2)nc2c1nnn2-c1cccc(OC(F)(F)F)c1"
  Assay System: "panel of 24 kinases"
  Value Reported: 0
- Compound: "FC(F)(F)Oc1cccc(-n2nnc3ccc(NCC4CC5(CCNCC5)C4)nc32)c1"
  Assay System: "panel of 24 kinases"
  Value Reported: 0
- Compound: "FC(F)(F)Oc1cccc(-n2nnc3ccc(NC4CC5(CCNCC5)C4)nc32)c1"
  Assay System: "panel of 24 kinases"
  Value Reported: 3
- Compound: "FC(F)(F)c1cccc(-n2nnc3cc(Cl)c(NCC4CCNCC4)nc32)c1"
  Assay System: "panel of 24 kinases"
  Value Reported: 14

----------
System: panel of 24 kinases
Procedure Details: Kinase selectivity testing (percentage inhibition of 24 kinases at 1 μM)
Format: biochemical
Stated Conditions: proquinase, SRC, 1 uM
Listed below: % inhibiton at 1 uM SRC values for each entry.

- Compound: "FC(F)(F)Oc1cccc(-n2nnc3ccc(NC4CC5(CCNCC5)C4)nc32)c1"
  % inhibiton at 1 uM SRC (%): 28
- Compound: "FC(F)(F)c1cccc(-n2nnc3cc(Cl)c(NCC4CCNCC4)nc32)c1"
  % inhibiton at 1 uM SRC (%): 24
- Compound: "COc1cc(NCC2CCNCC2)nc2c1nnn2-c1cccc(N(C)C)c1"
  % inhibiton at 1 uM SRC (%): 0
- Compound: "FC(F)(F)Oc1cccc(-n2nnc3ccc(NCC4CC5(CCNCC5)C4)nc32)c1"
  % inhibiton at 1 uM SRC (%): 16
- Compound: "FC(F)(F)Oc1cccc(-n2nnc3ccc(N4CCCC5(CCCN5)CC4)nc32)c1 (stereo not drawn)"
  % inhibiton at 1 uM SRC (%): 33
- Compound: "COc1cc(NCC2CCNCC2)nc2c1nnn2-c1cccc(OC(F)(F)F)c1"
  % inhibiton at 1 uM SRC (%): 8

----------
System: panel of 24 kinases
Procedure Details: Kinase selectivity testing (percentage inhibition of 24 kinases at 1 μM)
Type: biochemical
Stated Conditions: proquinase, B_RAF V600E, 1 uM
Observed Property: % inhibiton at 1 uM B_RAF V600E (%)

- Compound: "FC(F)(F)Oc1cccc(-n2nnc3ccc(NC4CC5(CCNCC5)C4)nc32)c1"
  Observed Property: "% inhibiton at 1 uM B_RAF V600E"
  Value Reported: 15
- Compound: "OC1CCC(Nc2ccc3nnn(-c4cccc(OC(F)(F)F)c4)c3n2)CC1 (stereo in doubt)"
  Observed Property: "% inhibiton at 1 uM B_RAF V600E"
  Value Reported: 6
- Compound: "COc1cc(NCC2CCNCC2)nc2c1nnn2-c1cccc(N(C)C)c1"
  Observed Property: "% inhibiton at 1 uM B_RAF V600E"
  Value Reported: 0
